Each entry below carries its recorded melting point.

Solved entries:
Exercise: Look up melting point for this compound: COc1ccc(-c2cc(-c3ccccc3)c(C(=O)NCCCCCC(=O)NO)[nH]2)cc1 [Example 6]
Key: 157 to 158 °C

Exercise: Look up melting point for this compound: COc1ccc(-c2cc(-c3ccccc3)[nH]c2C(=O)NCCCCCC(=O)NO)cc1 [Example 8]
Key: 142 °C

Read the next record carefully.
Exercise: Look up melting point for this compound: O=C(O)CCCCCNC(=O)c1[nH]c(-c2ccccc2)c([N+](=O)[O-])c1-c1ccccc1 [Example 5]
Key: 153 to 154 °C

###

value-type: melting point

Solved entries:
Exercise: Look up melting point for this compound: O=C(O)CCCCCNC(=O)c1[nH]c(-c2ccccc2)cc1-c1ccccc1
Key: 228 to 229 °C

Exercise: Look up melting point for this compound: COc1ccc(-c2[nH]c(C(=O)NCCCCCC(=O)NO)c(-c3ccccc3)c2[N+](=O)[O-])cc1
Key: 126 to 127 °C

Further cases:
Exercise: Look up melting point for this compound: CNNC(=O)NCCCCNC(=O)c1[nH]c(-c2ccc(OC)cc2)c([N+](=O)[O-])c1-c1cccs1
Key: 185 to 187 °C
